assayed-system: F508del (Homo sapiens, UniProt P13569, DEL508-508)
Construct: expressed in transfected cells
Sequence (P13569 with tags, fused parts or gaps DEL508-508): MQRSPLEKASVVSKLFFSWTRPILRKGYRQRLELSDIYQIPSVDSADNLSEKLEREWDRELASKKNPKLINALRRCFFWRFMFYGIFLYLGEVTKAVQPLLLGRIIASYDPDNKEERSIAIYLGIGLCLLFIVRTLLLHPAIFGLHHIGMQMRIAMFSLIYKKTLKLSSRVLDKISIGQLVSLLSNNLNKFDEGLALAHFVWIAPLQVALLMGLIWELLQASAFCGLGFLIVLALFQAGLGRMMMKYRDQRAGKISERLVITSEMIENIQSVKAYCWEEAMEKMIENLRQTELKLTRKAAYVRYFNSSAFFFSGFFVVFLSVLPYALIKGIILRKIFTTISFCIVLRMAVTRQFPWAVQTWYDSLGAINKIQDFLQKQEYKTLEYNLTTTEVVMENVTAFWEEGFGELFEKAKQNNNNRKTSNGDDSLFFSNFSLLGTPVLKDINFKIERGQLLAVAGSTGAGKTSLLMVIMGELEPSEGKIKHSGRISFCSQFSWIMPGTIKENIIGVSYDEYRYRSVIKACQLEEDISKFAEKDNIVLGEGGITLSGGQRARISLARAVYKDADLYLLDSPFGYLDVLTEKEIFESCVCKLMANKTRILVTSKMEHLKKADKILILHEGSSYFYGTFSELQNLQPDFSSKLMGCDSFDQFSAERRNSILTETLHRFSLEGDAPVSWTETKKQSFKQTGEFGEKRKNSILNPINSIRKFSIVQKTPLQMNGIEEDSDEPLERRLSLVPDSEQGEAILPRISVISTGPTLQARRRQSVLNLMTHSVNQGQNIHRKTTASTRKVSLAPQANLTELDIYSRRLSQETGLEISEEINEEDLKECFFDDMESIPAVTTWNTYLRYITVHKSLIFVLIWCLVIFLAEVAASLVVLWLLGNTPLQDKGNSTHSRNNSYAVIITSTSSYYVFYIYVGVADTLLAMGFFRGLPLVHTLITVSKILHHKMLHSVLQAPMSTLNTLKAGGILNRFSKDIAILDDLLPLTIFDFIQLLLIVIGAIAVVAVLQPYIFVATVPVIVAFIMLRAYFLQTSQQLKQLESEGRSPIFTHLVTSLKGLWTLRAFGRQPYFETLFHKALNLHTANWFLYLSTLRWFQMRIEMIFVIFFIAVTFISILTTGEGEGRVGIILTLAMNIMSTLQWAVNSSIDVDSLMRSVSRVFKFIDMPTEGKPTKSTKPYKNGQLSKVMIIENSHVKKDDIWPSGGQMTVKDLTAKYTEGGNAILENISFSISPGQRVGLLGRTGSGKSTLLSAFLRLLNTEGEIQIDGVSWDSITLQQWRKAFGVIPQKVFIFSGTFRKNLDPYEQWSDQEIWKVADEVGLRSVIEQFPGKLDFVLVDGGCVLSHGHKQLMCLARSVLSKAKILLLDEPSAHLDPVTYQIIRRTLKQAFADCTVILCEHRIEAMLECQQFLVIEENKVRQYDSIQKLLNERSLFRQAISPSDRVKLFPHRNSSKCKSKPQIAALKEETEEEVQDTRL
assay-method-text: Protocol 2: FRET membrane potential optical assay (VIPR), identification of correction compounds
Assay type: cell-based
particulars: F508del CFTR modulator activity; compounds of Table 1; read-out: EC30
Documented EC30 across a set of molecules

Known EC30 results, listed for orientation:
molecule | assayed-system | EC30
CC(C)COc1cc(F)cc(-c2ccc(C(=O)NS(=O)(=O)c3cccc(N)n3)c(N3CCC(O)CC3)n2)c1 [Compound 2323] | F508del (Homo sapiens, UniProt P13569, DEL508-508) | 3000 to 10000 nM
CCOc1cccc(-c2ccc(C(=O)NS(=O)(=O)c3ccc[nH]c3=O)c(N3C[C@@H](C)CC3(C)C)n2)c1 [Compound 2235] | F508del (Homo sapiens, UniProt P13569, DEL508-508) | < 3000 nM
CC1CN(c2ncccc2C(=O)NS(=O)(=O)c2cccc(NCCc3ccccn3)n2)C(C)(C)C1 (stereo not shown) [Compound 2359] | F508del (Homo sapiens, UniProt P13569, DEL508-508) | 3000 to 10000 nM

Below: the item to evaluate.
Query :: Value lookup for EC30; key = COc1ccc(-c2ccc(C(=O)NS(=O)(=O)c3cccnc3N)c(N3C[C@@H](C)CC3(C)C)n2)cc1OC [Compound 2664]
Result :: < 3000 nM

These measurements were taken from patent US10758534B2.
